# Tested on: Wolbachia pipientis
# testDescription: Anti-Wolbachia Cell-Based Screen
# Format: functional
# setupConditions: Wolbachia pipientis
For each entry below, report its IC50 value.
// note: answer is a bare numeric in µM

Value of IC50 reported for the compound c1ccc(O[C@H]2COCCN(Cc3c[nH]c4ccccc34)C2)cc1 is 6.98

Value of IC50 reported for the compound Cc1cccc(N2CCN(C(=O)c3c(C)nn(C)c3C)CC2)c1C is 2.32

Value of IC50 reported for the compound O=C(O)C(F)(F)F.O=C(O)C(F)(F)F.c1cncc(-c2ccc3c(c2)CCC32CCN(Cc3ccco3)CC2)c1 is 0.404

Value of IC50 reported for the compound Cc1nc2cc(-c3nccn3C)nn2c(N2CCCC2)c1C is 9.95
